Tested on: Mus musculus
test.method.notes: Hypoglycemic effect of compound 1 hr after subcutaneous administration of 20 mg/kg dose in alloxanized mice and expressed as percent of initial blood glucose level
Assay type: functional
Outcome label depends on BGL relative to 80%: at/above gives met, below gives not met.

INSERT INTO assay_data (molecule, target_system, class_label) VALUES
  ('CC(=O)Nc1ccc(S(=O)(=O)N2[C@@H]3CO[C@@H](C(C)C)OC[C@@H]32)cc1 (stereo not given in full)', 'Mus musculus', 'met'),
  ('CC(=O)Nc1ccc(S(=O)(=O)N2[C@@H]3CO[C@H](C(C)C)OC[C@@H]32)cc1 (stereo not given in full)', 'Mus musculus', 'met'),
  ('O=S(=O)(c1ccc(Br)cc1)N1[C@@H]2COCOC[C@@H]21 (stereo not given in full)', 'Mus musculus', 'met');

Next molecule, please.
Reported BGL reaches at least 80% for CC(=O)Nc1ccc(S(=O)(=O)N2[C@@H]3COCOC[C@@H]32)cc1 (stereo not given in full) ?
not met

###

Collected HAR values appear next to each entry.
Test system: Mus musculus
test.method.notes: Hypoglycemic effect of compound 1 hr after subcutaneous administration of a 20 mg/kg dose in alloxanized mice and expressed as hypoglycemic activity ratio (hAR) taking metformin as standard
Assay type: functional

INSERT INTO measurements (compound, target_system, result) VALUES
  ('O=S(=O)(c1ccccc1)N1[C@@H]2COCOC[C@@H]21 (stereo partly specified)', 'Mus musculus', 3.36),
  ('O=S(=O)(c1ccc(Cl)cc1)N1[C@@H]2COCOC[C@@H]21 (stereo partly specified)', 'Mus musculus', 1.64);

For the record COc1ccc(S(=O)(=O)N2[C@@H]3COCOC[C@@H]32)cc1 (stereo partly specified) , what value of HAR is listed for Mus musculus?
1.57

For the record Cc1ccc(S(=O)(=O)N2[C@@H]3COCOC[C@@H]32)cc1 (stereo partly specified) , what value of HAR is listed for Mus musculus?
0.42

For the record CN(C)C(=N)NC(=N)N [METFORMIN] , what value of HAR is listed for Mus musculus?
1

For the record O=S(=O)(c1ccc(Br)cc1)N1[C@@H]2COCOC[C@@H]21 (stereo partly specified) , what value of HAR is listed for Mus musculus?
-0.5

For the record CC(C)[C@@H]1OC[C@@H]2[C@H](CO1)N2S(=O)(=O)c1ccc([N+](=O)[O-])cc1 (stereo partly specified) , what value of HAR is listed for Mus musculus?
1.57

For the record CC(=O)Nc1ccc(S(=O)(=O)N2[C@@H]3CO[C@H](C(C)C)OC[C@@H]32)cc1 (stereo partly specified) , what value of HAR is listed for Mus musculus?
1.08

###

Tested on: Mus musculus
test.method.notes: Hypoglycemic effect of compound 1 hr after subcutaneous administration of 20 mg/kg dose in alloxanized mice and expressed as percent of initial blood glucose level
Format: functional
Outcome label depends on BGL relative to 80%: at/above gives 1, below gives 0.

Here are 4 compounds together with their reported answers.
INSERT INTO results (compound, class_label) VALUES
  ('O=S(=O)(c1ccccc1)N1[C@@H]2COCOC[C@@H]21 (stereo partly specified)', 0),
  ('CN(C)C(=N)NC(=N)N [METFORMIN]', 1),
  ('O=S(=O)(c1ccc(Cl)cc1)N1[C@@H]2COCOC[C@@H]21 (stereo partly specified)', 0),
  ('O=S(=O)(c1ccc(F)cc1)N1[C@@H]2COCOC[C@@H]21 (stereo partly specified)', 0);

Next compound, please.
Reported BGL reaches at least 80% for Cc1ccc(S(=O)(=O)N2[C@@H]3COCOC[C@@H]32)cc1 (stereo partly specified) ?
1
